- Measured target: F508delCFTR (Homo sapiens, UniProt P13569, DEL508-508)
- Construct: expressed in transfected cells; host or cells: CFBE41o- human lung-derived epithelial cells (CFBE41o-F508delCFTR-HRP), doxycycline-inducible
- Sequence (P13569 with tags, fused parts or gaps DEL508-508): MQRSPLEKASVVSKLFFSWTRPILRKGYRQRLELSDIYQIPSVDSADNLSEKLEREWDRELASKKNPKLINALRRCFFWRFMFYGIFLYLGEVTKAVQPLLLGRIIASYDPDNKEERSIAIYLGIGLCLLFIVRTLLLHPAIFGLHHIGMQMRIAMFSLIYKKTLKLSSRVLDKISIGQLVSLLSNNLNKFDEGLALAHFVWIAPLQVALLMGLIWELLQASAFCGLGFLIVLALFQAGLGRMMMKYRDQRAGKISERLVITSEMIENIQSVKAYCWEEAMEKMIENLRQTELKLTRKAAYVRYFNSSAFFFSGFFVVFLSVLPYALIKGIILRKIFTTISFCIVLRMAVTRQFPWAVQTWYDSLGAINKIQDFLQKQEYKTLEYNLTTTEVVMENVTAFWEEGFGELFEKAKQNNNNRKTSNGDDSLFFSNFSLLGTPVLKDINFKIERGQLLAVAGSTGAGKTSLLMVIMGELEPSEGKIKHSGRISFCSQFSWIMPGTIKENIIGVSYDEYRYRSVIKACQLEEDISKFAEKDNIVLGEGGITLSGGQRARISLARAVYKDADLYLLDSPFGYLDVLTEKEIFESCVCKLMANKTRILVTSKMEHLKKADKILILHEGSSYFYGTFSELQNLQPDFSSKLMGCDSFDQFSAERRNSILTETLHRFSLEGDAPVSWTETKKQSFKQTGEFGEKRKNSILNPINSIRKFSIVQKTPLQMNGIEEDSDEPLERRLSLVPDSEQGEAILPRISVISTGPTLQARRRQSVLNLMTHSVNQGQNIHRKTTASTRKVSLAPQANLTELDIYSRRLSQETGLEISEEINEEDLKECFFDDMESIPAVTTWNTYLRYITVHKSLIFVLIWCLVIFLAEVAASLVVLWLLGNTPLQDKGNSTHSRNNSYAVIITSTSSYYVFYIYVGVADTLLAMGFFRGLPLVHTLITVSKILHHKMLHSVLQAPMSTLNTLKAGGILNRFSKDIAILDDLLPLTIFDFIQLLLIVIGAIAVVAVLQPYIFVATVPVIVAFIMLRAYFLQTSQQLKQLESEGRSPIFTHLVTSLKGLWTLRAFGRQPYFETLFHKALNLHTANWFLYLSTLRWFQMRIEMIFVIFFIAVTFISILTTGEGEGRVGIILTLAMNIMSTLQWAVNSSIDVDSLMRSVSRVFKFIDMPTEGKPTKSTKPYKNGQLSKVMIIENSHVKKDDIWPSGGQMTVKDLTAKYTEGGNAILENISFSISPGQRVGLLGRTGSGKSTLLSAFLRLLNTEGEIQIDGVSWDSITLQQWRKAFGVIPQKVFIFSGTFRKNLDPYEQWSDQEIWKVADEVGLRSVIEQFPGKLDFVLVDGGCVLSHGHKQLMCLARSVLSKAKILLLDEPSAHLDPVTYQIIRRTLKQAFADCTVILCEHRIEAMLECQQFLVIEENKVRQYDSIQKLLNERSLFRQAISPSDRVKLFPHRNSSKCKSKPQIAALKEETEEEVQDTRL
- Test: Cell Surface Expression-Horse Radish Peroxidase (CSE-HRP) assay, test compound without co-corrector;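 also: percent of on-plate 2 µM positive control corrector response over DMSO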
- Type: cell-based
- Condition info: maximum at any tested concentration, normalized to positive control, without co-corrector
- Method: Cell Surface Expression-Horse Radish Peroxidase (CSE-HRP) Assay […] The % activity measured at each of the 8 test concentrations of the test compound added either without or with a co-corrector (2 μM of 3-[(2R,4R)-4-({[1-(2,2-difluoro-1,3-benzodioxol-5-yl)cyclopropyl]carbonyl}amino)-7-methoxy-3,4-dihydro-2H-chromen-2-yl]benzoic acid) was normalized to the on-plate positive control using the following formulae: […]
Emax overview

Molecule: Cc1ccccc1S(=O)(=O)NC(=O)C1CCc2c(Br)cccc21 (stereo not shown) [II-33]
Emax: 50 to 150%
//
Molecule: Cc1ccccc1S(=O)(=O)NC(=O)[C@@H]1CCCc2ccccc21 [II-17]
Emax: < 50%
//
Molecule: O=C(NS(=O)(=O)c1ccccc1F)C1CCc2c(Cl)cccc21 (stereo not shown) [II-28]
Emax: < 50%
//
Molecule: CCC1(C(=O)NS(=O)(=O)c2ccccc2OC(F)(F)F)CCc2c(Cl)cccc21 (stereo not shown) [II-60]
Emax: < 50%
//
Molecule: COc1ccc(Br)c2c1C(C(=O)NS(=O)(=O)c1cccc3ncccc13)CCC2 (stereo not shown) [Example I-50]
Emax: ≥ 150%
//
Molecule: COc1cccc2c1CCC2C(=O)NS(=O)(=O)c1nc2c(=O)n(C)c(=O)n(C)c2n1Cc1ccccc1 (stereo not shown) [III-60]
Emax: < 50%
//
Molecule: COc1cccc2c1[C@H](C(=O)NS(=O)(=O)c1cccc3ncccc13)CC2(C)C [Example I-154]
Emax: ≥ 150%
//
Molecule: O=C(NS(=O)(=O)c1cccc2ccccc12)C1CCCc2c1ccc1c2OCCO1 (stereo not shown) [II-52]
Emax: 50 to 150%
//
Molecule: COc1cccc2c1CCC2C(=O)NS(=O)(=O)c1c(C(=O)OC(C)(C)C)c(C)nn1C (stereo not shown) [III-68]
Emax: < 50%
//
Molecule: COc1ccc(C2CCCO2)c2c1C(C(=O)NS(=O)(=O)c1cccc3ccccc13)CC2 (stereo not shown) [Example I-138]
Emax: ≥ 150%
//
Molecule: CCC1(C(=O)NS(=O)(=O)c2cc(C)ccc2C)CCc2c(Cl)cccc21 (stereo not shown) [II-62]
Emax: < 50%
//
Molecule: COc1cccc2c1CCC2C(=O)NS(=O)(=O)C1CCOCC1 (stereo not shown) [III-14]
Emax: < 50%
//
Molecule: O=C(NS(=O)(=O)c1cccc2ccccc12)[C@H]1CCCc2cccc(Cl)c21 [Example I-12]
Emax: ≥ 150%
//
Molecule: CC(C)Oc1ccc(Br)c2c1CCCC2C(=O)NS(=O)(=O)c1cccc2ccccc12 (stereo not shown) [Example I-40]
Emax: ≥ 150%
//
Molecule: COc1ccc(OC)c2c1CC[C@@H]2C(=O)NS(=O)(=O)c1cccc2ncccc12 [Example I-91]
Emax: 50 to 150%
//
Molecule: COc1cc2c(cc1OC)C(C(=O)NS(=O)(=O)c1cccc3ccccc13)CCC2 (stereo not shown) [II-53]
Emax: 50 to 150%
//
Molecule: COc1ncc(C2CCC2)c2c1C(C(=O)NS(=O)(=O)c1cccc3ccccc13)CC2 (stereo not shown) [Example I-111]
Emax: ≥ 150%
//
Molecule: COc1cc(-c2cccc3c2CCC3C(=O)NS(=O)(=O)c2ccccc2C)ccn1 (stereo not shown) [II-42]
Emax: 50 to 150%
//
Molecule: COc1ccc(Br)c2c1C(C(=O)NS(=O)(=O)c1cccc3c(O)cccc13)CC2 (stereo not shown) [Example I-105]
Emax: ≥ 150%
//
Molecule: COc1ccc(C(F)(F)F)c2c1[C@H](C(=O)NS(=O)(=O)c1cccc3ccccc13)CC2 [Example I-94]
Emax: ≥ 150%
//
Molecule: COc1cccc2c1CCC2C(=O)NS(=O)(=O)c1ccc(O)nc1 (stereo not shown) [III-66]
Emax: < 50%
//
Molecule: COc1ccc(C2CCC2)c2c1[C@@H](C(=O)NS(=O)(=O)c1cccc3ccccc13)C2 (single isomer, unassigned) [Example I-106]
Emax: ≥ 150%
//
Molecule: O=C(NS(=O)(=O)c1cccc2ccccc12)C1CCCc2c(Cl)ccc(O)c21 (stereo not shown) [Example II-128]
Emax: 50 to 150%
//
Molecule: COc1ccc(C2CCC2)c2c1[C@@H](C(=O)NS(=O)(=O)c1cccc3c1CCCN3)C2 (single isomer, unassigned) [Example I-145]
Emax: ≥ 150%
//
Molecule: COc1cccc2c1CCC2C(=O)NS(=O)(=O)c1ccc2cc(O)ccc2c1 (stereo not shown) [III-22]
Emax: < 50%
//
Molecule: COc1cccc2c1CCC2C(=O)NS(=O)(=O)c1cc(C)ccc1C(C)C (stereo not shown) [III-25]
Emax: < 50%
//
Molecule: COc1cccc2c1CCC2C(=O)NS(=O)(=O)c1cccnc1 (stereo not shown) [III-81]
Emax: < 50%
//
Molecule: CCC1(C(=O)NS(=O)(=O)c2cccc(F)c2F)CCc2c(Cl)cccc21 (stereo not shown) [II-103]
Emax: < 50%
//
Molecule: O=C(NS(=O)(=O)c1cccc2ccccc12)C1CCc2c(Br)ccc(OCC3CC3)c21 (stereo not shown) [Example I-55]
Emax: ≥ 150%
//
Molecule: COc1ccc(Br)c2c1C(C(=O)NS(=O)(=O)c1cccc3ccccc13)CC2 (stereo not shown) [Example I-19]
Emax: ≥ 150%
//
Molecule: COc1cccc(CC2(C(=O)NS(=O)(=O)c3cccc4ccccc34)CCc3c(Cl)cccc32)n1 (stereo not shown) [Example I-37]
Emax: 50 to 150%
//
Molecule: CCC1(C(=O)NS(=O)(=O)c2ccc(F)c3ccccc23)CCc2c(Cl)cccc21 (stereo not shown) [II-77]
Emax: < 50%
//
Molecule: COc1cccc2c1CCC2C(=O)NS(=O)(=O)c1ccc(C#N)cc1 (stereo not shown) [III-46]
Emax: < 50%
//
Molecule: COc1ccc(C2CCC2)c2c1CCC[C@@H]2C(=O)NS(=O)(=O)c1cccc2ccccc12 [Example I-60]
Emax: ≥ 150%

Source listed as patent US20180244611A1.
